- System: Hepatotoxicity
- assay_details: FDA HLAED, alkaline phosphatase increase
- test_conditions: human
measure: Alkaline Phosphatase Increase - Activity Score

compound: C[C@@H]1CN(c2c(F)c(N)c3c(=O)c(C(=O)O)cn(C4CC4)c3c2F)C[C@H](C)N1
test_value: Inactive
--
compound: CC1=C(CC(=O)O)c2cc(F)ccc2/C1=C\c1ccc([S+](C)[O-])cc1 (configuration not stated)
test_value: Inactive
--
compound: O=P1(N(CCCl)CCCl)NCCCO1 (configuration not stated) [CYCLOPHOSPHAMIDE ANHYDROUS]
test_value: Active
--
compound: CC(=O)N(CC(O)CN(C(C)=O)c1c(I)c(C(=O)NCC(O)CO)c(I)c(C(=O)NCC(O)CO)c1I)c1c(I)c(C(=O)NCC(O)CO)c(I)c(C(=O)NCC(O)CO)c1I (configuration not stated)
test_value: Inactive
--
compound: OCc1cc(C(O)CNCCCCCCOCCCCc2ccccc2)ccc1O (configuration not stated)
test_value: Inactive
--
compound: CC(C)(C)NCC(O)c1ccc(O)c(CO)c1 (configuration not stated)
test_value: Inactive
--
compound: C#CCN(C)[C@H](C)Cc1ccccc1
test_value: Inactive
--
compound: CCC(C)n1ncn(-c2ccc(N3CCN(c4ccc(OCC5COC(Cn6cncn6)(c6ccc(Cl)cc6Cl)O5)cc4)CC3)cc2)c1=O (configuration not stated)
test_value: Active
--
compound: Clc1cccc(Cl)c1N=C1NCCN1
test_value: Active
--
compound: CO/N=C(\C(=O)N[C@@H]1C(=O)N2C(C(=O)O)=C(COC(N)=O)CS[C@H]12)c1ccco1
test_value: Inactive
--
compound: O=C(NCC1CCCCN1)c1cc(OCC(F)(F)F)ccc1OCC(F)(F)F (configuration not stated) [FLECAINIDE]
test_value: Active
--
compound: CC(CCc1ccc(O)cc1)NCCc1ccc(O)c(O)c1 (configuration not stated)
test_value: Inactive
--
compound: CC(=O)O[C@H]1C(=O)[C@@]2(C)[C@H]([C@H](OC(=O)c3ccccc3)[C@]3(O)C[C@H](OC(=O)[C@H](O)[C@@H](NC(=O)c4ccccc4)c4ccccc4)C(C)=C1C3(C)C)[C@]1(OC(C)=O)CO[C@@H]1C[C@@H]2O
test_value: Marginally Active
--
compound: CC(=O)OCC1=C(C(=O)O)N2C(=O)[C@@H](NC(=O)CSc3ccncc3)[C@H]2SC1
test_value: Inactive
--
compound: CCCCC[C@H](O)/C=C/[C@@H]1[C@H]2C/C(=C/CCCC(=O)O)O[C@H]2C[C@H]1O
test_value: Inactive
--
compound: CC[C@@H]1C(=O)OC[C@@H]1Cc1cncn1C
test_value: Inactive
--
compound: CC(C)(C)NC[C@H](O)COc1nsnc1N1CCOCC1
test_value: Inactive
--
compound: Nc1ccn(C[C@@H](CO)OCP(=O)(O)O)c(=O)n1.O.O
test_value: Active
--
compound: NCC(CC(=O)O)c1ccc(Cl)cc1 (configuration not stated)
test_value: Active
--
compound: CCN1CCN(C(=O)N[C@@H](C(=O)N[C@@H]2C(=O)N3[C@@H]2SC(C)(C)[C@@H]3C(=O)O)c2ccccc2)C(=O)C1=O
test_value: Inactive
--
compound: Cn1cnc([N+](=O)[O-])c1Sc1ncnc2nc[nH]c12
test_value: Active
--
compound: CO/N=C(\C(=O)N[C@@H]1C(=O)N2C(C(=O)OC(C)OC(C)=O)=C(COC(N)=O)CS[C@H]12)c1ccco1 (some centres not stated)
test_value: Inactive
--
compound: CCCCCCCCCCC(=O)O[C@H]1CC[C@H]2[C@@H]3CCc4cc(O)ccc4[C@H]3CC[C@]12C [ESTRADIOL UNDECYLATE]
test_value: Inactive
--
compound: CC(=O)CC(c1ccccc1)c1c(O)c2ccccc2oc1=O (configuration not stated)
test_value: Marginally Active
--
compound: C[C@@H]1O[C@@H]1P(=O)(O)O
test_value: Inactive
--
compound: CSc1ccc2c(c1)N(CCC1CCCCN1C)c1ccccc1S2 (configuration not stated)
test_value: Marginally Active
--
compound: COc1cc(C(=O)NS(=O)(=O)c2ccccc2C)ccc1Cc1cn(C)c2ccc(NC(=O)OC3CCCC3)cc12
test_value: Inactive
--
compound: COc1cccc2c1C(=O)c1c(O)c3c(c(O)c1C2=O)C[C@@](O)(C(C)=O)C[C@@H]3O[C@H]1C[C@H](N)[C@H](O)[C@H](C)O1
test_value: Inactive
--
compound: Nc1nnc(-c2cccc(Cl)c2Cl)c(N)n1
test_value: Inactive
--
compound: CC(=O)O[C@H]1C[C@@H]2CC[C@@H]3[C@H](CC[C@@]4(C)[C@H]3C[C@H]([N+]3(C)CCCCC3)[C@@H]4OC(C)=O)[C@@]2(C)C[C@@H]1N1CCCCC1.[Br-] [VECURONIUM BROMIDE]
test_value: Inactive
--
compound: CCCCCCC(=O)O[C@H]1CC[C@H]2[C@@H]3CCc4cc(O)ccc4[C@H]3CC[C@]12C [ESTRADIOL ENANTHATE]
test_value: Inactive
--
compound: Cc1ncc2n1-c1ccc(Cl)cc1C(c1ccccc1F)=NC2
test_value: Inactive
